- Test system: FSCCL^R clone 1 (PI3KCA E970K)
- test details: CellTiter Glo viability assay after 96 h
- Type: cell-based
- measurement context: single agent, read-out: EC50
pEC50: −log10 of the molar value.
assay readout: pEC50

>>> numeric_value("Cc1nc(NC(=O)N2CCC[C@H]2C(N)=O)sc1-c1ccnc(C(C)(C)C(F)(F)F)c1")
5.67

* * *

- Tested on: FSCCL^R clone 2 (PI3KCA N345K)
- test details: CellTiter Glo viability assay after 96 h
- Assay type: cell-based
- measurement context: single agent, read-out: EC50
assay readout: EC50 (nM)

>>> numeric_value("Cc1nc(NC(=O)N2CCC[C@H]2C(N)=O)sc1-c1ccnc(C(C)(C)C(F)(F)F)c1")
1540

* * *

- Tested on: TMD8^R (Idelalisib-resistant line)
- test details: CellTiter-Glo viability assay at 96 h
- Type: cell-based
- measurement context: FIGS. 11A, 13A; printed with 1 μM of each named agent; read-out: EC50, cell viability
Documented EC50 across a set of compounds
assay readout: EC50

>>> result("NC1(c2ccc(-c3nc4ccn5c(=O)[nH]nc5c4cc3-c3ccccc3)cc2)CCC1")
"< 10 µM"
>>> result("CNc1nc(-c2ccc3c(N)n[nH]c3c2)cc(N2C[C@@H](C(=O)NC3CCCCC3)CC[C@H]2C)n1")
"< 10 µM"

* * *

- Tested on: OCI-LY10 cells
- test details: CellTiter-Glo cell viability assay, four days (Example 1A)
- Assay type: cell-based
- measurement context: Homo sapiens, OCI-Ly10, OCI-LY10; addition of Compound B at 6 nM; read-out: EC50 of idelalisib
pEC50: −log10 of the molar value.
assay readout: pEC50

>>> numeric_value("CCC(Nc1ncnc2[nH]cnc12)c1nc2cccc(F)c2c(=O)n1-c1ccccc1 (stereo not shown)")
7.62

* * *

- Tested on: TMD-8 cells
- test details: CellTiter-Glo cell viability assay, four days (Example 1A)
- Format: cell-based
- measurement context: Homo sapiens, TMD8, TMD-8; Compound B 5 nM; read-out: EC50 of Idelalisib when Combined with Compound B
assay readout: EC50 (nM)

>>> numeric_value("CCC(Nc1ncnc2[nH]cnc12)c1nc2cccc(F)c2c(=O)n1-c1ccccc1 (stereo not shown) [Idelalisib]")
130

* * *

- Test system: Ri-1 cells
- test details: CellTiter-Glo cell viability assay, four days (Example 1A)
- Type: cell-based
- measurement context: Ri-1, Ri-1; Compound B 15 nM; read-out: EC50 of Idelalisib when Combined with Compound B
pEC50: −log10 of the molar value.
assay readout: pEC50

>>> numeric_value("CCC(Nc1ncnc2[nH]cnc12)c1nc2cccc(F)c2c(=O)n1-c1ccccc1 (stereo not shown)")
6.43

* * *

- Tested on: TMD-8 cells
- test details: CellTiter-Glo cell viability assay, four days (Example 1A)
- Format: cell-based
- measurement context: Homo sapiens, TMD8, TMD8; addition of Compound B at 25 nM; read-out: EC50 of idelalisib
pEC50: −log10 of the molar value.
assay readout: pEC50

>>> numeric_value("CCC(Nc1ncnc2[nH]cnc12)c1nc2cccc(F)c2c(=O)n1-c1ccccc1 (stereo not shown)")
7.62

* * *

- Test system: Ri-1 cells
- test details: CellTiter-Glo cell viability assay, four days (Example 1A)
- Assay type: cell-based
- measurement context: Ri-1, Ri-1; Idelalisib 625 nM; read-out: EC50 of Compound B in Combination with Idelalisib
assay readout: EC50 (nM)

>>> numeric_value("CC#CC(=O)N1CC[C@@H](n2c(=O)n(-c3ccc(Oc4ccccc4)cc3)c3c(N)ncnc32)C1 [Compound B]")
2

* * *

- Tested on: Ri-1 cells
- test details: CellTiter-Glo cell viability assay, four days (Example 1A)
- Assay type: cell-based
- measurement context: Ri-1, Ri-1; Compound B 5 nM; read-out: EC50 of Idelalisib when Combined with Compound B
assay readout: EC50 (nM)

>>> numeric_value("CCC(Nc1ncnc2[nH]cnc12)c1nc2cccc(F)c2c(=O)n1-c1ccccc1 (stereo not shown) [Idelalisib]")
372

* * *

- Test system: OCI-LY10 cells
- test details: CellTiter-Glo cell viability assay, four days (Example 1A)
- Format: cell-based
- measurement context: Homo sapiens, OCI-Ly10, OCI-LY-10; Compound B 45 nM; read-out: EC50 of Idelalisib when Combined with Compound B
pEC50: −log10 of the molar value.
assay readout: pEC50

>>> numeric_value("CCC(Nc1ncnc2[nH]cnc12)c1nc2cccc(F)c2c(=O)n1-c1ccccc1 (stereo not shown) [Idelalisib]")
8.30
